The reported measurements were obtained from patent US9163030B2.

# measured_target: DOR (Homo sapiens, UniProt P41143)
# Construct: expressed in transfected cells; host or cells: CHO (hDOR-CHO)
# Sequence (P41143 whole entry): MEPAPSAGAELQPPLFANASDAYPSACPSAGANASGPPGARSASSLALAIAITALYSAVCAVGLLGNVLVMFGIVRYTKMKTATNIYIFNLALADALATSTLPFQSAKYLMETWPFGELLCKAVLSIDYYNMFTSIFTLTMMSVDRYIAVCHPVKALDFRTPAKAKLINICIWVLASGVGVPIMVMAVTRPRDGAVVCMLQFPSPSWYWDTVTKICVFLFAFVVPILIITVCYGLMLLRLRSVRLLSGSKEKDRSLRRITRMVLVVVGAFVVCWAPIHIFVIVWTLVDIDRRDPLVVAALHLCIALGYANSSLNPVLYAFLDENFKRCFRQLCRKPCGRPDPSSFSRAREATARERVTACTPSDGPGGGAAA
# protocol_summary: Opioid binding assay, displacement of [3H]DADLE, hDOR-CHO cell membranes
Please go through the items and note down their pKi.
Numbers only, as −log10 of the molar value.

Completed entries (count: 3):
COC12Cc3cc(-c4ccc(Cl)cc4)cnc3C3Oc4c(O)ccc5c4C31CCN(CC1CC1)C2C5 (stereo not shown) [Compound 17a] | 8.71
CN1CCC23c4c5ccc(O)c4OC2c2ncc(-c4ccc(Cl)cc4)cc2CC3(OCc2ccccc2)C1C5 (stereo not shown) [Compound 17f] | 8.75
COC12Cc3cc(-c4ccc(Cl)cc4)cnc3C3Oc4c(O)ccc5c4C31CCN(C)C2C5 (stereo not shown) [Compound 17e] | 8.79

Would you be so kind as to report pKi for each listed record?
1. Oc1ccc2c3c1OC1c4ncc(-c5ccc(Cl)cc5)cc4CC4(OCc5ccccc5)C(C2)N(CC2CC2)CCC314 (stereo not shown) [Compound 17b]
2. O=C(OC12Cc3cc(-c4ccc(Cl)cc4)cnc3C3Oc4c(O)ccc5c4C31CCN(CC1CC1)C2C5)c1ccccc1 (stereo not shown) [Compound 18a]
3. CN1CCC23c4c5ccc(O)c4OC2c2ncc(-c4ccc(Cl)cc4)cc2CC3(OCC=Cc2ccccc2)C1C5 (stereo not shown) [Compound 17g]
4. CN1CCC23c4c5ccc(O)c4OC2c2ncc(-c4ccc(Cl)cc4)cc2CC3(OC(=O)c2ccccc2)C1C5 (stereo not shown) [Compound 18d]

1: 8.72; 2: 7.06; 3: 8.94; 4: 7.77

----------
# measured_target: MOR (Homo sapiens)
# Construct: expressed in transfected cells; host or cells: CHO (hMOR-CHO)
# Sequence (P35372 whole entry): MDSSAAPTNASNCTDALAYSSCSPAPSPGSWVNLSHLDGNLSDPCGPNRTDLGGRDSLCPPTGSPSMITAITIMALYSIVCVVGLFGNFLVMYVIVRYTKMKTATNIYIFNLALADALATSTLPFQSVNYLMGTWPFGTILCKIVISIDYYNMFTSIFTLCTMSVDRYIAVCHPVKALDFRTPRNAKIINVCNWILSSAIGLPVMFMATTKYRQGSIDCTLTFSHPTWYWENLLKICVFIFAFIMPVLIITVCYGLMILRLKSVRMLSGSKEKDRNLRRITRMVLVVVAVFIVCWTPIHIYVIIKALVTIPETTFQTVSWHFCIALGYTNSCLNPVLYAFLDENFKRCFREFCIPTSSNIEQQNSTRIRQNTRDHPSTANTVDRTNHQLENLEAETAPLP
# protocol_summary: Opioid binding assay, displacement of [3H]DAMGO, hMOR-CHO cell membranes
Assign Ki to each entry below.
One number for each entry, in nM.

O=C(Cc1ccccc1)OC12Cc3cc(-c4ccc(Cl)cc4)cnc3C3Oc4c(O)ccc5c4C31CCN(CC1CC1)C2C5 (stereo not shown) [Compound 18b] | 1.04
CN1CCC23c4c5ccc(O)c4OC2c2ncc(-c4ccc(Cl)cc4)cc2CC3(OCC=Cc2ccccc2)C1C5 (stereo not shown) [Compound 17g] | 0.41
Oc1ccc2c3c1OC1c4ncc(-c5ccc(Cl)cc5)cc4C=C4C(C2)N(CC2CC2)CCC431 (stereo not shown) | 13

Continue with the compound presented below.
For the compound CN1CCC23c4c5ccc(O)c4OC2c2ncc(-c4ccc(Cl)cc4)cc2CC3(OCc2ccccc2)C1C5 (stereo not shown) [Compound 17f] , what Ki is on record? 4.69

----------
readout: melting point

COC12Cc3cc(-c4ccc(Cl)cc4)cnc3C3Oc4c(O)ccc5c4C31CCN(CC1CC1)C2C5 (stereo not shown) [Compound 17a] | 170 to 173 °C
Oc1ccc2c3c1OC1c4ncc(-c5ccc(Cl)cc5)cc4C=C4C(C2)N(CC2CC2)CCC431 (stereo not shown) | 164 to 166 °C

Provide the reported melting point of each entry below, same order.
1. O=C(Cc1ccccc1)OC12Cc3cc(-c4ccc(Cl)cc4)cnc3C3Oc4c(O)ccc5c4C31CCN(CC1CC1)C2C5 (stereo not shown) [Compound 18b]
2. CN1CCC23c4c5ccc(O)c4OC2c2ncc(-c4ccc(Cl)cc4)cc2CC3(OCc2ccccc2)C1C5 (stereo not shown) [Compound 17f]

1. 118 to 120 °C
2. 228 to 232 °C
